Numbers sourced from patent US20130303497A1.

- assay_procedure: Plasma protein binding, equilibrium dialysis
- Format: in vitro ADME
- measurement_context: human plasma dialysed against phosphate buffer, pH 7.4, mass recovery from the dialysis device
recorded_endpoint: recovery at 6 h, 0.2 μM (%)

molecule="[2H]C([2H])(CCCN1C(=O)[C@@]2([2H])[C@H]3CC[C@H](C3)[C@@]2([2H])C1=O)N1CCN(c2ncccn2)CC1 [Compound XV]" readout_number=92
molecule="O=C1[C@@H]2[C@H]3CC[C@H](C3)[C@@H]2C(=O)N1CCCCN1CCN(c2ncccn2)CC1 [Tandospirone]" readout_number=82
molecule="[2H]c1cnc(N2CCN(C([2H])([2H])CCCN3C(=O)[C@@H]4[C@@H]5CC[C@@H](C5)[C@@H]4C3=O)CC2)nc1 [Compound III]" readout_number=86
molecule="[2H]C([2H])(CCCN1C(=O)[C@@H]2[C@@H]3CC[C@@H](C3)[C@@H]2C1=O)N1CCN(c2ncccn2)CC1 [Compound II]" readout_number=95
